Target system: N-terminal His6-tagged Mdm225-117 (Homo sapiens)
Construct: 25-117 fusion protein; made in house; host or cells: E. coli BL21 DE3 pLySS, pET-14B vector
Test details: Fluorescence polarization competitive binding assay with fluorescein labeled p53 peptide (Flu-p53)
Experimental parameters: Table 6, computationally predicted dimers; competitive fluorescence polarization assay; read-out: Kd (μM), binding affinity for Mdm2
Quantity kind: Kd (µM)

• COc1ccc(C[C@@H]2NCCN([C@@H](Cc3c[nH]c4ccccc34)C(=O)N3CCN([C@@H](CC(C)C)C(N)=O)C(=O)[C@@H]3Cc3ccccc3)C2=O)cc1 = 0.32
• CC(C)C[C@@H](C(N)=O)N1CCN(C(=O)[C@H](Cc2c[nH]c3ccccc23)N2CCN[C@@H](Cc3ccc(Cl)cc3)C2=O)[C@@H](Cc2ccccc2)C1=O = 1.29
